Target: huLTBP1 proTGFβ1 (Homo sapiens, UniProt P01137+Q14766)
Sequence (P01137 30-390): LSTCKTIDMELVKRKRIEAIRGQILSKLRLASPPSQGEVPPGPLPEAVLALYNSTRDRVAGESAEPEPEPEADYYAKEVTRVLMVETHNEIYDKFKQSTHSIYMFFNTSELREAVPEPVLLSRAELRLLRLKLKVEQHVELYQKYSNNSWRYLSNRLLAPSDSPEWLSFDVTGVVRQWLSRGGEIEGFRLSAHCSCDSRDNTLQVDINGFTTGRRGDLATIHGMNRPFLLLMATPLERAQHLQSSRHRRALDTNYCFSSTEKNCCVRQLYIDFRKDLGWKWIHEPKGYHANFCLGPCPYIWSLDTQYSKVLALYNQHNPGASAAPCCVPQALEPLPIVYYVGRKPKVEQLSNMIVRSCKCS
Sequence (Q14766 347-1721 limits assumed): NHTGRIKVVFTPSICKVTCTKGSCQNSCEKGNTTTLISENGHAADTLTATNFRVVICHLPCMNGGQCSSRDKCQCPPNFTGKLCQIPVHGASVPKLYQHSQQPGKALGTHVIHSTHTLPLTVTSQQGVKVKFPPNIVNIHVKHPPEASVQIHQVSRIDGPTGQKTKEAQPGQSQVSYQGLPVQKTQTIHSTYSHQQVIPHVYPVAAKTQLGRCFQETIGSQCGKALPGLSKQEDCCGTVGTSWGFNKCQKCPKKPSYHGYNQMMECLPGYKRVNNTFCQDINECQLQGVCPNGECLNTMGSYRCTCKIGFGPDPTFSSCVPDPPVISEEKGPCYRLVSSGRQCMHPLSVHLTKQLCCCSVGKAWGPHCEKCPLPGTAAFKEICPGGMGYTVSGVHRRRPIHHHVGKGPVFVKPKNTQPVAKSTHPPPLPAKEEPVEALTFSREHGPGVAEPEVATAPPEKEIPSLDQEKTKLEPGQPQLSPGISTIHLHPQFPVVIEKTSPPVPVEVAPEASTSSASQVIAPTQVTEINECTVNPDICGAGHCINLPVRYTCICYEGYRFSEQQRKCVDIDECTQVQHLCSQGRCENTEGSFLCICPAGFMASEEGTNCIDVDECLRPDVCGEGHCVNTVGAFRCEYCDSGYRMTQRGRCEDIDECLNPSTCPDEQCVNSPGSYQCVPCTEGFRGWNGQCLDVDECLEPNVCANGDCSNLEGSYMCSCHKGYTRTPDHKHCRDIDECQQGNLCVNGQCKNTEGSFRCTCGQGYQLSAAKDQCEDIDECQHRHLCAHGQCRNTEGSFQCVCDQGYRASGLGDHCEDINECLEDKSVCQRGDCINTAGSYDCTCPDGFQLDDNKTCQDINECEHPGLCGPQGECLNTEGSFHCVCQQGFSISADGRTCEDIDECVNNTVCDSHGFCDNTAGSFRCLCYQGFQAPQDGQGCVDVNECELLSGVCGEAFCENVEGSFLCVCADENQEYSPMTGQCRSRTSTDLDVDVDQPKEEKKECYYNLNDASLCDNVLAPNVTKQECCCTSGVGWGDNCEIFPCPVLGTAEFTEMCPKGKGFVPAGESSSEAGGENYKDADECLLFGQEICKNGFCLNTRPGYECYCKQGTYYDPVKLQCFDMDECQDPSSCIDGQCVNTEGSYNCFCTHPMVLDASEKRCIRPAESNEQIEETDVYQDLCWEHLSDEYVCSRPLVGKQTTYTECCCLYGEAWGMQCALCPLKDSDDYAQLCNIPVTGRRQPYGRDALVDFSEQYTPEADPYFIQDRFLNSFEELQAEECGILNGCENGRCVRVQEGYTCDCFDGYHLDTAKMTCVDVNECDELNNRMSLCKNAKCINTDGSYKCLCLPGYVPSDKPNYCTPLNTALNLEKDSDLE
Experiment: SPR (Biacore 8K) monovalent binding kinetics of Fabs, biotinylated antigen captured
Set-up: biotin (complex biotinylated)
Details: Fab, huLTBP1 proTGFβ1; SR-AB42-HuFab average of five, SR-AB63-HuFab average of four replicate experiments
Listed next: entries and their corresponding ka.
parameter_measured: ka (M⁻¹ s⁻¹)

INSERT INTO assay_data (molecule, result_number) VALUES
  ('SR-AB59-HuFab (antibody, V domains shown) VH: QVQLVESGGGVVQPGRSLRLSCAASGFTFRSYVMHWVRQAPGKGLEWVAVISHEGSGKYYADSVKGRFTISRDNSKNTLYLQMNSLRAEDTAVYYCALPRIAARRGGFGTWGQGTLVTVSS VL: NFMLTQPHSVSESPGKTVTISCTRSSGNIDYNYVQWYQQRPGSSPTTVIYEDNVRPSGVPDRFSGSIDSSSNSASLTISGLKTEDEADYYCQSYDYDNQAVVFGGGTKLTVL', '2.55e+06'),
  ('SR-AB61-HuFab (antibody, V domains shown) VH: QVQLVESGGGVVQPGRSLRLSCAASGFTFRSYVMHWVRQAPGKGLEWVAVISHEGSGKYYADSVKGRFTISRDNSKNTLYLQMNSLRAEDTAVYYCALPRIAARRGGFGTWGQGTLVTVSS VL: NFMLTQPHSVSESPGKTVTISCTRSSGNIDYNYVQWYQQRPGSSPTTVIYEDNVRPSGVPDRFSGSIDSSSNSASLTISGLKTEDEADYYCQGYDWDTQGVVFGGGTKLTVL', '1.17e+06'),
  ('SR-AB46-HuFab (antibody, V domains shown) VH: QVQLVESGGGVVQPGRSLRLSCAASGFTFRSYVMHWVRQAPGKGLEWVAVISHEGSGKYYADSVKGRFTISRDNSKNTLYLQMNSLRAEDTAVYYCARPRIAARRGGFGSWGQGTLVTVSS VL: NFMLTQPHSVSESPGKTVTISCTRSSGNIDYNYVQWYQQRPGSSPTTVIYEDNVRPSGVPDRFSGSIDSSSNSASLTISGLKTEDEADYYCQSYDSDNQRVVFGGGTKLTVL', '2.47e+06'),
  ('SR-AB47-HuFab (antibody, V domains shown) VH: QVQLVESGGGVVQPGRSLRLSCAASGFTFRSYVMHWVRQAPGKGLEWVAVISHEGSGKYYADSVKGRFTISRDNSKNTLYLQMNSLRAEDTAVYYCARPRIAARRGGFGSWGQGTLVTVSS VL: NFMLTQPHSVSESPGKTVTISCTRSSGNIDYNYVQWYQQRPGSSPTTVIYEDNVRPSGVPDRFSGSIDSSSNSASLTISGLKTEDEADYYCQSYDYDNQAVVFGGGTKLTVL', '1.84e+06'),
  ('SR-AB48-HuFab (antibody, V domains shown) VH: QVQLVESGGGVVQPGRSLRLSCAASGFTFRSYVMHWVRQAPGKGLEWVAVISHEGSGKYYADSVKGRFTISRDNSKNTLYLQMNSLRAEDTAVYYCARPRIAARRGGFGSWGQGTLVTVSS VL: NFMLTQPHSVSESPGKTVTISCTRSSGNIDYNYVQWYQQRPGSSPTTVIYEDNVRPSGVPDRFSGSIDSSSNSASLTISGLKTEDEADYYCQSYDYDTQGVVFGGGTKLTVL', '1.76e+06');
